meta.source: ChEMBL document CHEMBL1201862

System: TK-10
Test summary: NCI tumour cell line growth inhibition, 48 h
The source made the active and inactive calls. Cut-off read from the data, not from the text of the source: active = GI50 up to about 1.1 µM and inactive = higher.
Observation type: GI50

Enquiry: I am curious: what GI50 value has been reported for "COc1c(Sc2ccccc2)cc(Sc2ccccc2)c2cccnc12" ?
Return: 23.2 µM (inactive)

Enquiry: Next entry: "CC(=O)Oc1cccc2c1C(=O)CCCC2"
Return: > 100 µM (inactive)

Enquiry: Next entry: "O=C1C(Nc2ccc(S(=O)(=O)Nc3cnc4ccccc4n3)cc2)=C/C(=N\c2ccc(S(=O)(=O)Nc3cnc4ccccc4n3)cc2)c2ccccc21"
Return: 30.7 µM (inactive)

Enquiry: Next entry: "[O-][n+]1c(-c2ccccc2)c2nc3ccccc3nc2c2ccccc21"
Return: > 100 µM (inactive)

Enquiry: Next entry: "Nc1ccc2nc(NCc3ccc(F)cc3)cnc2c1"
Return: > 100 µM (inactive)

Enquiry: Next entry: OC(c1cc2ccc(C(F)(F)F)cc2c2cc(C(F)(F)F)ccc12)C1CCCCN1 (stereo not given)
Return: 1.73 µM (inactive)

Enquiry: Next entry: "CCOC(=O)N1c2ccccc2N(C(=O)OCC)C1CC(=O)/C=C/c1ccccc1"
Return: 3.74 µM (inactive)

Enquiry: Next entry: "C=C(C)CN(CC#N)CC(=C)C"
Return: > 100 µM (inactive)

---
Enquiry: I am curious: what GI50 value has been reported for COC(=O)[C@@H]1[C@@H](c2cccc(Cl)c2)[C@H](C(=O)OC)C2(C[C@@]1(C)O)NCCS2 (stereo not given in full) ?
Return: > 100 µM (inactive)

Enquiry: Next entry: "Nc1ncnc2ccc(Sc3ccc4ncnc(N)c4c3)cc12"
Return: > 100 µM (inactive)
